Consider the following sequences and their measured amyloid nucleation score readings.
assay: amyloid nucleation score (Sup35N fusion, yeast selection) (log enrichment); library NNK1; higher = more nucleation; inactive = no reads after selection;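 also: zero at mode of non-aggregating sequences after 7 days selection at 30°C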
Write the value as a bare number.

Solved entries (count: 4):
TGWNGNLGSVVAE    -0.375
QLTPTLCDRSRCCPGGLFVY    0.631
LMLPFVYS    0.392
SSKYTCFSDYKKCVYTLWRL    0.292

Quick one: amyloid nucleation score of `LWWYFHRTL` ?
-0.168

Please report the recorded amyloid nucleation score for `FQTFSSICYMISFLIVG` .
0.928

Give its amyloid nucleation score value. Item: `VSQTPWTLYLN`
0.229

GET /values?readout=amyloid nucleation score&item= `VVQGCIYYCHNVWYLDVFSF`
4.62

# input sequence: `KSTTLLVGSRSCGAHLQRLH` ; wanted: its amyloid nucleation score
0.462

Fill in: amyloid nucleation score of `CSHANETW` is ___
0.593

May I ask what amyloid nucleation score has been recorded for `FMELEELCSCNERGLLWTPA` ?
1.6

Which amyloid nucleation score value is on record for `HTRRTEFHAGYYRINTAYAV` ?
0.268

What amyloid nucleation score value was documented for this sequence, `NKLTSCTVSHCL` ?
-0.125

// lookup amyloid nucleation score for `SINSRKSFMFIF`
2.39

GET /values?readout=amyloid nucleation score&item= `GLNLNRFWRLGATFILYLQT`
1.19

Name the recorded amyloid nucleation score for `ILENTVCSIFVSVVIANVGL` .
1.94

###

assay: amyloid nucleation score (Sup35N fusion, yeast selection) (log enrichment); library NNK3; higher = more nucleation; inactive = no reads after selection
VALUE TYPE: amyloid nucleation score

SVSADGGFCIHGQTRPMAGL    1.21
KRLAKWGTMYLV    inactive
RFWSMRALR    inactive
VSEFRRVYFSAQFSRVGNSC    inactive
SCAKQLCYHGFLMGH    inactive
VYYYKMTGKVYMSLYMGKLL    inactive
LICIQCWFYDSYHTQQLWGL    2.16
LVCMEISSNFLATVCVEWIG    inactive

Reported amyloid nucleation score, substance `LSLFVGGAEGWVKGDPASEG` : ____
0.507

amyloid nucleation score lookup needed for `DNVIYPASYGVVRRNTRHGF` , thanks.
inactive

What value of amyloid nucleation score has been recorded for this entry: `VDHGRD`
inactive

Requested field: amyloid nucleation score. Item: `IGFFEFIKELITWKILS`
inactive

Any idea what its amyloid nucleation score is? The substance is `YYIHCVWYNADKVYEG`
2.37

Reported amyloid nucleation score, substance `TRWRLSVYERVGARRDTPLC` : ____
inactive

Record request: amyloid nucleation score value, item `TSLGNGVSHGTLGFILTVNT`
inactive

Query (substance): `ISTRPSM` ; field requested: amyloid nucleation score
inactive

###

test: amyloid nucleation score (Sup35N fusion, yeast selection) (log enrichment); library NNK3; higher = more nucleation; inactive = no reads after selection
VALUE TYPE: amyloid nucleation score

Some substances with known amyloid nucleation score results, for comparison:
WLKAEGWIIILSSATRPG    inactive
HTVLILVCAFKNAG    inactive
LLVTQGVYS    1.17
VLCCLDYIYPVGALGYYACI    inactive
SPVMPMMFGNKRVPLITDLR    inactive

Fill blank: measured amyloid nucleation score of the substance `NWDMAFNYNLTAFSPKGTNS` is ____.
inactive

Can you share its amyloid nucleation score? I mean this substance: `ITDLYF`
inactive

Which amyloid nucleation score value belongs to `SQDFKLPSLSTFYRHGMEPS` ?
inactive

Fill in the blank: the reported amyloid nucleation score of `YAVSLMIFGFWGSSMFSHPS` is ____.
0.779

So what's the measured amyloid nucleation score for this one? `PLLIAVQWTMTAGCRSHKLL`
-0.781

Record request: amyloid nucleation score value, item `NRSSKWVISYRATICLLPMD`
inactive

Could you share which amyloid nucleation score value was measured for `CDLMAKGSCIEQPQPSVAGK` ?
inactive

###

assay: amyloid nucleation score (Sup35N fusion, yeast selection) (log enrichment); library NNK2; higher = more nucleation; inactive = no reads after selection
VALUE TYPE: amyloid nucleation score

FACLYKTMQQLMGIKMCVKA    0.277
RFHGTGSQHS    -0.496
QFSLSFSDFCKSLW    6.29
DGNAVCDILLLTSIMVSVSA    -0.551
LARSLSVNQYKPNLLFVGCD    -1.52
NHMGIVRVVLMFGSYITLI    -0.174
ECVLMTGTMWSTSSALW    0.877

What amyloid nucleation score value was documented for this sequence, `ERYLCVVDMEIKGRALRKRW` ?
-0.144

###

assay: amyloid nucleation score (Sup35N fusion, yeast selection) (log enrichment); library NNK2; higher = more nucleation; inactive = no reads after selection
Threshold rule: amyloid nucleation score greater than or equal to 0.5 is 1 (yes); below that, 0 (no).

Worked set:
WLCDWLASIWCMFGLSGCSR    0 (no)
QLVNMRTCLLSRDLRLLELL    0 (no)
QFTCYTVYNGYWA    1 (yes)
VPGLESMR    1 (yes)

Item `TLAYMNGVA` with amyloid nucleation score of 0.5 or above?
0 (no)

Please tell me: is the sequence `LSAVVTSFKVTN` at or over 0.5 in terms of amyloid nucleation score?
1 (yes)

Does `LLYRYYSF` have a reported amyloid nucleation score of at least 0.5?
1 (yes)

Answer whether amyloid nucleation score of `WSCCKFLDCHITVCDFLVWA` is greater than or equal to 0.5.
1 (yes)

Quick check, amyloid nucleation score >= 0.5? `MLRCQFTSTGFGNRLATFSD`
1 (yes)

Does amyloid nucleation score meet or surpass 0.5 for `FSGSTIDWL` ?
0 (no)

Check if amyloid nucleation score >= 0.5 (inclusive). Item: `VLVNKGLTMHFACSYV`
1 (yes)

Hi, just wondering whether `LDWHAEHKGSCSFPDNEMLS` shows amyloid nucleation score of 0.5 or higher.
0 (no)

API: above_or_equal(metric=amyloid nucleation score, cutoff=0.5) for item `VCAQLYPVYMWFWICMGMVQ`
1 (yes)

Given the entry `FTIALIYTFLLISCLLGMSV` , answer whether its amyloid nucleation score meets or surpasses 0.5.
0 (no)

###

experiment: amyloid nucleation score (Sup35N fusion, yeast selection) (log enrichment); library NNK3; higher = more nucleation; inactive = no reads after selection
VALUE TYPE: amyloid nucleation score

Please review the following examples before continuing.
LARWNVIWFFNGNCIFEESV    1.31
NRRKLYKGSCGLTFRGSRER    inactive
KCTANL    inactive
CPLLSGFDESWDVEYDAQGD    inactive
TEYTILLASRNLFPTR    0.598
YNRADSIRFQ    inactive
SNCFPLSFWIR    -0.88
GVIFEISVSCVQTFCPFHYL    1.21

// query amyloid nucleation score value for entry `ESKTCVVHLSAKCSLSEERT`
inactive

Which amyloid nucleation score reading was recorded for the substance `MEWFFVSYPLITGWMGS` ?
inactive

Param item = `KAVLWFGDIWRQVG` ; retrieve measured amyloid nucleation score.
inactive

Look up amyloid nucleation score for this substance: `FAFSNLTKPVFKI`
inactive

Quick one: amyloid nucleation score of `VYPCKIFCVFVVAVILFFSL` ?
inactive

###

assay: amyloid nucleation score (Sup35N fusion, yeast selection) (log enrichment); library NNK1; higher = more nucleation; inactive = no reads after selection
amyloid nucleation score values, listed per item
# print the numeric value only

SFFLFRENFEMSNIRFRYVN    0.995
IVVLLKNRS    0.488
YFQFRDGIFIFYVTF    0.415

For `ITPTYGT` , what is its reported amyloid nucleation score?
-0.023

Report amyloid nucleation score for `INTCCIRCFRQYGNFNKIKT` please.
0.662

Give the measured amyloid nucleation score of `HRSCCNKRRRERNFSDWTGV` .
0.542

I am curious: what amyloid nucleation score value has been reported for `FFSSNNRWRTLYNLHCSEFA` ?
0.24

Record request: amyloid nucleation score value, item `SGIVLTG`
-1.06

Could you share which amyloid nucleation score value was measured for `GRFRARIHCSPQARVTFVAS` ?
-0.113

Report amyloid nucleation score for `KSMECSFAWLWDSREFIFCH` please.
-1.67

Which measured amyloid nucleation score value corresponds to `YDYGVESLRLVVLCNDLWFL` ?
-0.346

Could you share which amyloid nucleation score value was measured for `AFIFMSTATDDLFFAINL` ?
-0.139

# amyloid nucleation score lookup, item `SYNVMCVGYCIC`
3.4

I would be grateful if you could share the reported amyloid nucleation score for `SDKAMHCGCVLH` .
-0.891

Recorded amyloid nucleation score of `PVRQLERSNRLLKQGRRPLG` , please.
0.512

What value of measured amyloid nucleation score is listed for `DWFAECVFLRRTLESY` ?
-0.601

Sample `NVYSIYIINYMAYKVFWDMI` — what was its amyloid nucleation score?
-0.116
